Measured values drawn from patent US9371374 for this set.

target: biotinylated HCV core peptide 134-154 (Peptide 1) (HCV-1); experiment: EIA, captured mAb
PROPERTY: Reactivity (OD492) (OD)

# BINDER, UNITS LABEL, MEASUREMENT
measured = [
    ("HCV 208B-517 (antibody, V domains shown) VH: QVQLKQSGPGLVQPSQSLSITCTVSGFSLITHGVHWVRQSPGKGLEWLGVIWSGGSTDYNAAFISRLSISKDTSKSQVFLKMSSLQADDTAIYYCARNGGATAFDYWGQGTTLTVSS VL: DIVMTQSPATLSVTPGDRVSLSCRASQSISDYLHWYQQKSHESPRLLIKYASQSISGIPSRFRGSGSGSHFTLSINSVEPEDVGVYYCQNGHSFPWTFGGGTKLEIKR", "OD", 0.1),
    ("HCV 208B-395 (antibody, V domains shown) VH: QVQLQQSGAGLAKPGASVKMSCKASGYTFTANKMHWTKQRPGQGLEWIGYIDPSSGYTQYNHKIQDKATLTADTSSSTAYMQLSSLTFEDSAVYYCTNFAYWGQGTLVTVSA VL: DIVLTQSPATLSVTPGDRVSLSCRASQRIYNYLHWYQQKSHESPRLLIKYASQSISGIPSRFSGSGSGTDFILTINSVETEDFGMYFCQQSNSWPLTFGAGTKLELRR", "OD", 0.54),
    ("HCV 208B-251 (antibody, V domains shown) VH: QLQQSGPVLVKPGASVKISCKTSGYTFTENAMHWVKQSHGKSLEWIGGVNPNNGDTIYNQKFKGKATLTVDKSSSTAFMELRSLTSEESPVYFCVRRELDFFDYWGQGTSVTVSS VL: DIVLTQSPASLAVSLGKKATISCRASQSVSTSRYSYMHWYQQKPGHPPKLLIKYASNLESGVPARFSGSGSGTDFTLNIHPVAEEDTAAYYCQHSWEFPFTFGSGTKLEIKR", "OD", 0.11),
    ("HCV 208B-589 (antibody, V domains shown) VH: QVQLQQSGAGLAKPGASVKMSCKASGYTFTANKMHWAKQRPGQGLEWIGYIDPSSGYTEYNHKIQDKATLTADTSSSTAYMQLSSLTFEDSAVYYCTNFAYWGQGTLVTVSA VL: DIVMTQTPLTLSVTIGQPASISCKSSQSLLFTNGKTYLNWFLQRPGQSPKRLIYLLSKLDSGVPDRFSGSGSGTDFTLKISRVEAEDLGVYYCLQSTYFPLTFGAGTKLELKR", "OD", 0.27),
    ("HCV 208B-174 (antibody, V domains shown) VH: EVKLEESGGGLVQPGGSMKLSCVASGFSFSSYWMSWVRQSPEKGLDWVAEIRLRSDNYATHYAESVKGRFTISRDDSISRLYLQMNTLRAEDTGIYYCTWMTYWGQGTLVTVSA VL: QNVLTQSPAIMSASPGEKVTMSCSASSSVTYMFWYQLKPESSPRLLIYDTSNLASGVPVRFSGSGSGTSYSLTISRMEAEDAATYYCQEWSSYPLTFGAGTKLDLKR", "OD", 0.08),
    ("HCV 208A-134 (antibody, V domains shown) VH: QGQMQQSGAELAKPGASVKLSCKTSGFTFSSSYISWLKQKPGQSLEWIAWIYAGTGNTNYNQKFTDKAQLTVDTSSSTAYMQLSSLTTEDSAIYYCAISGTGFTYWGQGTLVTVSA VL: EVLMTQSPLSLPVSLGDQASISCRSSQSLEHTNGNTYLEWFLQRPGQPPKLLIYKVSSRFSGVPDRFSGSGSGTDFTLKISRVEAEDLGVYYCFQGSHVPFTFGSGTKLAIKR", "OD", 2.06),
    ("HCV 208A-133 (antibody, V domains shown) VH: QLQQSGPVLVGPGASVMISCKTSGYTFTENAMHWVEQSHGKSLEWIGGVNPNNGDTIFNQKFKGKATLTVDKSSSTAFMEFRSLTSEESTVYYCVRRELDFFDYWGQGTSVTVSS VL: DIVLTQSPASLAVSLGQRATISCRASQSVSTSRYSYMHWYQQKPGQPPKLLIKYASNLESGVPARFSGSGSGTDFTLNIHPVAEEDTATYYCQHSWEFPFTFGSGTKLEIKR", "OD", 0.1),
    ("HCV 208B-822 (antibody, V domains shown) VH: QVQLKQSGPGLVQPSQSLSITCTVSGFSLITYGVHWVRQSPGKGLEWLGVIWGGGSTGYNAAFVSRLNITKDNSKSQVFFKMNSLQPDDTAIYYCARNGGATVFDYWGQGTTLTVSS VL: DIVMTQSPATLSVTPGDRVSLSCRASQTISDYLHWYQQKSHESPRLLIKYASQSISGIPSRFSGSGSGSHFTLSINSVEPEDVGVYYCQNGHSFPWTFGGGTKLEIKR", "OD", 0.08),
    ("HCV 208B-1096 (antibody, V domains shown) VH: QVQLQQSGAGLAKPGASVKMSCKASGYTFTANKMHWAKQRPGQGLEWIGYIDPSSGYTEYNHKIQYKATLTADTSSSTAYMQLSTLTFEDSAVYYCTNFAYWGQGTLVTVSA VL: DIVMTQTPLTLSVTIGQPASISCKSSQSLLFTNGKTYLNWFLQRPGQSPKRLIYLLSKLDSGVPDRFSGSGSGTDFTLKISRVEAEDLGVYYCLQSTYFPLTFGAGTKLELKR", "OD", 0.34),
    ("HCV 208B-547 (antibody, V domains shown) VH: QVQLQQSGAELAKPGASVKMSCKASGYTFTSNKMHWAKQRPGQGLEWIGYIDPSSGYTEYNQKIKDKATLTADKSSSTAYMQLSSLTSEDSAVYYCTNFAYWGQGTLVTVSA VL: EVVLTQSPAITAASLGQKVTITCRASSSVSYMHWYRQKSGTSPQPWIYEISTLASGVPTRFRASGSGTSYSLTISSMEAEDAAIYYCQQWNYPLTFGAGTKLELKR", "OD", 0.12),
]
